The values you see were collected from patent US20220396620A1.

molecular target: human cannabinoid receptor type 1 (CB1) (human, UniProt P21554 1-472); assay: cell-based or functional assay
Sequence (P21554 whole entry): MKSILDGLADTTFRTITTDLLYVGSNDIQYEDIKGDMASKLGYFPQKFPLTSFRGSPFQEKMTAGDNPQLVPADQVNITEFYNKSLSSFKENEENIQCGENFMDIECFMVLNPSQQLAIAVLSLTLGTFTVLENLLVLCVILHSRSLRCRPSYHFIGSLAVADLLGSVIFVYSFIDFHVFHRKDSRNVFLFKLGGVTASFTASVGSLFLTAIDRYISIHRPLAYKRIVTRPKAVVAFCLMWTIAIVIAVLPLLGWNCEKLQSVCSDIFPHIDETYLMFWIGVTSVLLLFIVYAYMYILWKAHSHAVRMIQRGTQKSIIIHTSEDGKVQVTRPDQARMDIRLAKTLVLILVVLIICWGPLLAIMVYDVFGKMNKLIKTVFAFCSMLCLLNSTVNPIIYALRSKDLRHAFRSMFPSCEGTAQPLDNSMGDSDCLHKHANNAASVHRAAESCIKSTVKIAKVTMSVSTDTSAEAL

| Binder | P-ERK IC50 (nM) Data Set 2 |
| --- | --- |
| M5 mouse anti-huCB-1 antibody (antibody, V domains shown, The humanized M5-H1 and M5-H2 carry the CDRs of the un-numbered VL, so that one may be the functional light chain) VH: QVHLQQSGAELVRPGSSVKISCKASGYEFSYYWMNWVKQRPGQGHEWIGQIYPGDGDTNYNGKFKGKATLTADKSSSTAYMQLSSLTSEDSAVYFCARGREAAWFAYWGQGTLVTVSA VL: DIVLAQSPASLAVSLGQRATISCRASQSVSSFRYSYLHWYQQKPGQPPRLLIKYASNLESGVPARFSGSGSGTDFTLNIHPVEEEDTATYFCQHSWEIPFTFGSGTKLEIKR | 50 nM |
